Source of measurements: PubChem BioAssay (NCI)

# Procedure Text: NCI Yeast Anticancer Drug Screen. Data for the sgs1 mgt1 strain (AID 161)
# Condition Summary: S. cerevisiae sgs1 mgt1 strain, at 50.0 µM
Compounds without any hit were thinned out: in the full panel of roughly 79,000, 15% have a hit. The source made the active and inactive calls. Cut-off read from the data, not from the text of the source: active = growth inhibition above about 70%; inactive = the rest.
Answer with one of the outcomes true = active, false = inactive

Answered examples (4):
{"Molecule": "CC(=O)CC(C)=O.CC(=O)CC(C)=O.CC(=O)CC(C)=O.CC(=O)CC(C)=O.[Zr]", "Group Label": "false"}
{"Molecule": "Cc1cccc2c1[se]c1ccccc12", "Group Label": "false"}
{"Molecule": "CCCCCCCCCCCCCCCC(=O)[O][Hg][c]1ccccc1", "Group Label": "true"}
{"Molecule": "CCNC1CCCCC1", "Group Label": "false"}

[ask] Record request — test call for `O=C(O)Cc1ccc(O)c(O)c1.[Pt].c1ccc([PH+](c2ccccc2)c2ccccc2)cc1.c1ccc([PH+](c2ccccc2)c2ccccc2)cc1`
[reply] false

[ask] Record request — test call for CC1=CC2OC3CC4OC(=O)/C=C/C=C/C(=O)OCC/C(C)=C/C(=O)OCC2(CC1O)C4(C)C31CO1 (stereo unspecified)
[reply] true
